Measured IC50 (MTP (Homo sapiens, UniProt P55157))
Form entry: value (µM) — number only.

Req: Specify IC50 for "CCOC(=O)[C@]1(c2ccccc2)CC[C@H](C(=O)NCCNC(=O)c2ccccc2OC)c2ccccc21" , system MTP (Homo sapiens, UniProt P55157).
Resp: 2.49

Req: For MTP (Homo sapiens, UniProt P55157), give the measured IC50 of the entry "CCOC(=O)[C@]1(c2ccccc2)CC[C@H](C(=O)N(C)CCNC(=O)c2ccccc2OC)c2ccccc21"
Resp: 0.0706

Req: Write IC50 of "CCOC(=O)[C@]1(c2ccccc2)CC[C@@H](C(=O)N(C)CCCNC(=O)c2ccccc2-c2ccc(C(F)(F)F)cc2)c2ccccc21" ; system used: MTP (Homo sapiens, UniProt P55157)
Sequence (P55157 19-894, species assumed): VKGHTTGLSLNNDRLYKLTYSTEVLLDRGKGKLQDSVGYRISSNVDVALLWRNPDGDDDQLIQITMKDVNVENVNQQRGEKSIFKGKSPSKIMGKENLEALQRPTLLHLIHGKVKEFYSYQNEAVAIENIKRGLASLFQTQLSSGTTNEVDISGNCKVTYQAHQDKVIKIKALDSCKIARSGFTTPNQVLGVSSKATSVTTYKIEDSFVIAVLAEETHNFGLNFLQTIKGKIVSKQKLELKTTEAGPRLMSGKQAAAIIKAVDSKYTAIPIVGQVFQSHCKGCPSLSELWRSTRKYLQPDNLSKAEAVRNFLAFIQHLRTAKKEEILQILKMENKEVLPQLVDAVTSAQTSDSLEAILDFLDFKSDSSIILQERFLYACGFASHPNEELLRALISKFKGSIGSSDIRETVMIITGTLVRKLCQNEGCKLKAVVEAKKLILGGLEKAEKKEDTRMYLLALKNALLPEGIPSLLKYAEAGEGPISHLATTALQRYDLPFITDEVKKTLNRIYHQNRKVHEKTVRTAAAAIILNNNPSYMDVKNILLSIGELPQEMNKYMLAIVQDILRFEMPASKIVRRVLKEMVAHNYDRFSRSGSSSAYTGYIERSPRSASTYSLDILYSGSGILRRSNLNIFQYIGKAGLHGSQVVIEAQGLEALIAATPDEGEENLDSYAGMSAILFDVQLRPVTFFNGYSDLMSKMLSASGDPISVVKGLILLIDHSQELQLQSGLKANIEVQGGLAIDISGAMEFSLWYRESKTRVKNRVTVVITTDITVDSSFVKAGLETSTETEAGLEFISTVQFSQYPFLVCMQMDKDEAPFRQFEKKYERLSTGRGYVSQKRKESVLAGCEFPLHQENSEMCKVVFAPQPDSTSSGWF
Sequence (P07237 18-508 partner, species assumed): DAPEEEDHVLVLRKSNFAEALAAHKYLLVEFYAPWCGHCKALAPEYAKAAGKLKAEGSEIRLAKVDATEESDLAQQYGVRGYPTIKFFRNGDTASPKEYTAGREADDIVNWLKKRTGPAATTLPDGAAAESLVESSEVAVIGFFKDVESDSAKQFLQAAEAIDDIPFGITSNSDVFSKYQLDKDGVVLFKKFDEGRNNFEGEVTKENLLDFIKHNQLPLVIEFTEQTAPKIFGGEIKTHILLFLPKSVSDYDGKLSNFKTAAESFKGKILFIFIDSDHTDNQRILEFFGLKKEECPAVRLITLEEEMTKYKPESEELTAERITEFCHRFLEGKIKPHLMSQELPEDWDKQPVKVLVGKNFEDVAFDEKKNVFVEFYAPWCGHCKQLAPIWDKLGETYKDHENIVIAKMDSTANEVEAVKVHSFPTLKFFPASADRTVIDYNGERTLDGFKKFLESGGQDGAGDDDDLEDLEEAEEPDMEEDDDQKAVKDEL
Resp: 0.00634

Req: Identify measured IC50 obtained with MTP (Homo sapiens, UniProt P55157) for "CCOC(=O)[C@]1(c2ccccc2)CC[C@H](C(=O)NCCCNC(=O)c2ccccc2-c2ccc(C(F)(F)F)cc2)c2ccccc21" .
Resp: 0.0618

Req: Provide the reported IC50 (system: MTP (Homo sapiens, UniProt P55157)) for CCCOC(=O)[C@]1(c2ccccc2)CC[C@@H](C(=O)N2CCCC(NC(=O)c3ccccc3OC)CC2)c2ccccc21 (some centres unmarked)
Resp: 0.023

Req: Provide the reported IC50 (system: MTP (Homo sapiens, UniProt P55157)) for "COC(=O)CCNC(=O)[C@]1(c2ccccc2)CC[C@@H](C(=O)N(C)CCCNC(=O)c2ccccc2OC)c2ccccc21"
Resp: 0.0652

Req: Enter IC50 (test system MTP (Homo sapiens, UniProt P55157)) for "CCOC(=O)[C@]1(c2ccccc2)CC[C@@H](C(=O)N(C)CCNC(=O)c2ccccc2-c2ccc(C(F)(F)F)cc2)c2ccccc21"
Resp: 0.0191
